Assay: chemical genetic growth profiling, strain panel (AID 1159580);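 also: tested at 20 µM; growth read once vehicle control cultures reached saturation at 30 °C; 1 = growth at the plate median or of vehicle wells; lower values mean less growth of the strain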
Details: S. cerevisiae deletion strains, growth OD, locus YJL187C, strain SWE1, hits give low values
The whole screen tested about 5,500 compounds, of which about 2,000 (36%) were called active. Not shown: some 18% with an inconclusive outcome. Some of the results follow.
Entries and their normalized growth values follow.
OUTCOME_MEASURE: normalized growth

>  <MOLECULE>
NCCNCCNCCN

>  <OBSERVED>
1

$$$$
>  <MOLECULE>
Cc1ccc(N(CC2=NCCN2)c2cccc(O)c2)cc1

>  <OBSERVED>
1.01

$$$$
>  <MOLECULE>
CC(=O)OCC(=O)[C@@]1(O)CCC2C3CCC4=CC(=O)CC[C@]4(C)C3[C@@H](O)C[C@@]21C (stereo partly drawn)

>  <OBSERVED>
1.01

$$$$
>  <MOLECULE>
O=C(CCBr)N1CCN(C(=O)CCBr)CC1

>  <OBSERVED>
1.02

$$$$
>  <MOLECULE>
O=C(O)c1cc(=O)c2c(Cl)cc(Cl)cc2[nH]1

>  <OBSERVED>
1.02

$$$$
>  <MOLECULE>
CCN(CC)CCNC(=O)c1cc(Cl)c(N)cc1OC

>  <OBSERVED>
0.989

$$$$
>  <MOLECULE>
COc1cccc(NC(=O)NC2Cc3ccccc3C2)c1

>  <OBSERVED>
0.998

$$$$
>  <MOLECULE>
COc1c2occc2c(OC)c2c(=O)cc(C)oc12

>  <OBSERVED>
0.99

$$$$
>  <MOLECULE>
CC(=O)N[C@@H](Cc1c[nH]c2ccccc12)C(=O)O

>  <OBSERVED>
0.987

$$$$
>  <MOLECULE>
COc1c2c(cc3c1OCO3)C13C=C[C@H](OC)CC1N(C2)CC3O (stereo partly drawn)

>  <OBSERVED>
0.987

$$$$
>  <MOLECULE>
CN(C)CCc1c[nH]c2ccc(CS(=O)(=O)N3CCCC3)cc12

>  <OBSERVED>
1.01

$$$$
>  <MOLECULE>
COc1cc2c(cc1OC)[C@@]13CCN4CC5=CCOC6CC(=O)N2C1[C@H]6[C@H]5C[C@H]43 (stereo partly drawn)

>  <OBSERVED>
0.996

$$$$
>  <MOLECULE>
COc1cccc(NC(N)=S)c1

>  <OBSERVED>
1.01

$$$$
>  <MOLECULE>
O=c1cc(C(F)(F)F)[nH]c2cc(Cl)cc(Cl)c12

>  <OBSERVED>
1.01

$$$$
>  <MOLECULE>
COc1ccc([C@H]2COc3c(ccc(O)c3OC)C2)c(OC)c1O

>  <OBSERVED>
0.991

$$$$
>  <MOLECULE>
CC(=O)c1cc2ccccc2oc1=O

>  <OBSERVED>
0.999

$$$$
>  <MOLECULE>
CCCCc1nc(Cl)c(CO)n1Cc1ccc(-c2ccccc2-c2nn[nH]n2)cc1

>  <OBSERVED>
0.981

$$$$
>  <MOLECULE>
COc1cc2nc(-c3cccs3)oc(=O)c2cc1OC

>  <OBSERVED>
0.999

$$$$

---

Assay: chemical genetic growth profiling, strain panel (AID 1159580);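 also: tested at 20 µM; growth read once vehicle control cultures reached saturation at 30 °C; 1 = growth at the plate median or of vehicle wells; lower values mean less growth of the strain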
Details: S. cerevisiae deletion strains, growth OD, locus YJL092W, strain hpr5
The whole screen tested about 5,500 compounds, of which about 2,000 (36%) were called active. Not shown: some 18% with an inconclusive outcome. Rule as the data show it: active = normalized growth mostly below about 0.91 (no sharp cut-off); inconclusive = no clear call, values can overlap the other calls; inactive = mostly above about 0.92. The list shows a part of the results.
Outcomes: active, inactive

>  <COMPOUND>
CO[C@@]1(NC(=O)Cc2cccs2)C(=O)N2C(C(=O)O)=C(COC(N)=O)CS[C@@H]21

>  <ASSIGNED_CATEGORY>
inactive

$$$$
>  <COMPOUND>
CN(C)CCc1c[nH]c2ccc(CS(=O)(=O)N3CCCC3)cc12

>  <ASSIGNED_CATEGORY>
inactive

$$$$
>  <COMPOUND>
CCCc1nc2c(C)cc(-c3nc4ccccc4n3C)cc2n1Cc1ccc(-c2ccccc2C(=O)O)cc1

>  <ASSIGNED_CATEGORY>
inactive

$$$$
>  <COMPOUND>
COc1cnc(NS(=O)(=O)c2ccc(N)cc2)nc1

>  <ASSIGNED_CATEGORY>
inactive

$$$$
>  <COMPOUND>
O=C(O)[C@H](O)[C@@](O)(Cc1ccc(O)cc1)C(=O)O

>  <ASSIGNED_CATEGORY>
inactive

$$$$
>  <COMPOUND>
O=C(NC1CCCCC1)NC1CCCCC1

>  <ASSIGNED_CATEGORY>
inactive

$$$$
>  <COMPOUND>
O=c1oc2c(O)c(O)cc3c(=O)oc4c(O)c(O)cc1c4c23

>  <ASSIGNED_CATEGORY>
active

$$$$
>  <COMPOUND>
CCOc1cccc(C(=O)c2ccc(O)c(O)c2O)c1

>  <ASSIGNED_CATEGORY>
inactive

$$$$
>  <COMPOUND>
CN1CCN(CC(=O)N2c3ccccc3C(=O)Nc3cccnc32)CC1

>  <ASSIGNED_CATEGORY>
inactive

$$$$
>  <COMPOUND>
O=C(CCBr)N1CCN(C(=O)CCBr)CC1

>  <ASSIGNED_CATEGORY>
inactive

$$$$
>  <COMPOUND>
O=C1c2ccccc2C(=O)C1c1ccccc1

>  <ASSIGNED_CATEGORY>
inactive

$$$$
>  <COMPOUND>
CC[C@H]1CN2CCc3cc(OC)c(OC)cc3C2C[C@@H]1CC1NCCc2cc(OC)c(OC)cc21 (some centres undefined)

>  <ASSIGNED_CATEGORY>
inactive

$$$$
>  <COMPOUND>
NC[C@H]1O[C@H](O[C@H]2C(O[C@@H]3O[C@H](CO)[C@@H](O)[C@H]3O)[C@@H](O)[C@H](N)C[C@@H]2N)[C@H](N)[C@@H](O)[C@@H]1O (some centres undefined)

>  <ASSIGNED_CATEGORY>
inactive

$$$$
>  <COMPOUND>
CC(=O)CC1CCCCN1 (centres undefined)

>  <ASSIGNED_CATEGORY>
inactive

$$$$

---

Assay: chemical genetic growth profiling, strain panel (AID 1159580);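 also: tested at 20 µM; growth read once vehicle control cultures reached saturation at 30 °C; 1 = growth at the plate median or of vehicle wells; lower values mean less growth of the strain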
Conditions: S. cerevisiae deletion strains, growth OD, locus YOR106W, strain vam3, hits give low values
Screen size: about 5,500 compounds; about 2,000 (36%) were called active. Roughly 18% stayed inconclusive and do not appear here. Some of the results follow. Where a SMILES comes first, the peptide text is derived from it. Side-chain parts run from the residue outwards. [ ]: non-standard residue; d: D form. The star is where a group is joined. X1 = CCC(C)C(N)C1=NC(C(=O)*)CS1; Orn = NCCC[CH](N)C(=O)O

>  <COMPOUND>
CCC(C)C(N)C1=NC(C(=O)NC(CC(C)C)C(=O)NC(CCC(=O)O)C(=O)NC(C(=O)NCCCCC2NC(=O)C(CC(N)=O)NC(=O)C(CC(=O)O)NC(=O)C(Cc3cnc[nH]3)NC(=O)C(Cc3ccccc3)NC(=O)C(C(C)CC)NC(=O)C(CCCN)NC2=O)C(C)CC)CS1 (stereo not drawn) (cyclo(DNK([Ile-Glu-Leu-X1])[Orn]IFH); configuration not given here)

>  <normalized growth>
1.02

$$$$
>  <COMPOUND>
COc1cc(NS(=O)(=O)c2ccc(N)cc2)ncn1

>  <normalized growth>
0.981

$$$$
>  <COMPOUND>
CN(C)CCc1c[nH]c2ccc(C[C@H]3COC(=O)N3)cc12

>  <normalized growth>
1

$$$$
>  <COMPOUND>
CCCCCCCCCCCCCCCCCCOCC(O)CO (stereo not given)

>  <normalized growth>
1.01

$$$$
>  <COMPOUND>
COc1ccc([C@H]2COc3c(ccc(O)c3OC)C2)c(OC)c1O

>  <normalized growth>
0.976

$$$$

---

Assay: chemical genetic growth profiling, strain panel (AID 1159580);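 also: tested at 20 µM; growth read once vehicle control cultures reached saturation at 30 °C; 1 = growth at the plate median or of vehicle wells; lower values mean less growth of the strain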
Settings: S. cerevisiae deletion strains, growth OD, locus YLR058C, strain SHM2, hits give low values
Out of some 5,500 compounds screened, about 2,000 (36%) were called active. About 18% were inconclusive and are not listed. Some of the results follow.

>  <COMPOUND>
CCOc1ccc(NC(C)=O)cc1

>  <normalized growth>
0.994

$$$$
>  <COMPOUND>
O=C1c2ccccc2C(=O)C1c1ccccc1

>  <normalized growth>
1.01

$$$$
>  <COMPOUND>
CC(=O)Oc1cc2c(c(C)c1OC(C)=O)CC1OC13C2(C)CCC1(C)C2CC(C)(C(=O)O)CCC2(C)CCC13C (stereo unspecified)

>  <normalized growth>
1

$$$$
>  <COMPOUND>
O=c1c(O)c(-c2ccc(O)c(O)c2)oc2cc(O)ccc12

>  <normalized growth>
0.978

$$$$
>  <COMPOUND>
COc1cc2cc3c4cc(OC)c(OC)cc4cc[n+]3c(C)c2cc1OC

>  <normalized growth>
0.998

$$$$
>  <COMPOUND>
COc1cc(NS(=O)(=O)c2ccc(N)cc2)ncn1

>  <normalized growth>
0.972

$$$$
